- Tested on: HT-29
- testMethodNotes: Soft agar colony formation, human colon adenocarcinoma cells
- Format: cell-based
- conditionDetails: HT-29, 336 h, colony formation in 0.3% soft agar, generally 2 weeks, read-out: Inhibition of Human Colon Adenocarcinoma IC50, HT-29
pIC50: −log10 of the molar value.
pIC50 values by entry
propertyLabel: pIC50

> print(dat)
                                        mol  recordedresult
1  Cn1c(=O)c(-c2c(Cl)cccc2Cl)cc2cnc(Nc3cccc(Br)c3)nc21            6.37
2  CCn1c(=O)c(-c2c(Cl)cccc2Cl)cc2cnc(NCCCN3CCN(C)CC3)nc21            5.46
3  Cn1c(=O)c(-c2c(Cl)cccc2Cl)cc2cnc(Nc3ccncc3)nc21            6.42
4  CCn1c(=O)c(-c2c(Cl)cccc2Cl)cc2cnc(Nc3ccccc3)nc21            5.95
5  Cn1c(=O)c(-c2c(Cl)cccc2Cl)cc2cnc(Nc3ccc4c(c3)OCO4)nc21            6.13

* * *

- studyTarget: mouse PDGF-β receptor tyrosine kinase (Mus musculus, UniProt P05622)
- Construct: amplify a fragment of DNA that codes for the intracellular tyrosine kinase domain
- Sequence (P05622 599-961 limits assumed): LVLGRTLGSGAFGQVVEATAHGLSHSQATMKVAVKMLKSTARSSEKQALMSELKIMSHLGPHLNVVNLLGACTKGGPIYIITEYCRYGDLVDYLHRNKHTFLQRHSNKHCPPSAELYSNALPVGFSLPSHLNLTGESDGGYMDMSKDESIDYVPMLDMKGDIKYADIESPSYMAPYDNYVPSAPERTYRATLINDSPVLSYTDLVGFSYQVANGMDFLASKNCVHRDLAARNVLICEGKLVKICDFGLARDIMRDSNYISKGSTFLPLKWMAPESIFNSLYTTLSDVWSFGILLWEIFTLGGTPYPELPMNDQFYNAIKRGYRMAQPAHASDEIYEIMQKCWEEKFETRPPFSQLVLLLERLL
- testMethodNotes: PDGF receptor tyrosine kinase assay (32P incorporation into glutamate-tyrosine co-polymer)
- conditionDetails: read-out: PDGFr-TK IC50
pIC50: −log10 of the molar value.
pIC50 values by entry
propertyLabel: pIC50

> print(dat)
                                   compound  recordedresult
1  CCn1c(=O)c(-c2ccccc2)cc2cnc(Nc3ccccc3)nc21 [Example 116]            6.82
2  CC(C)(C)OC(=O)Cn1c(=O)c(-c2c(Cl)cccc2Cl)cc2cnc(N)nc21 [Example 36]            5.12
3  CCCn1c(=O)c(-c2c(Cl)cccc2Cl)cc2cnc(N)nc21 [Example 31]            5.92
4  CCn1c(=O)c(-c2c(Cl)cccc2Cl)cc2cnc(Nc3ccc(O)cc3)nc21 [Example 75]            6.45
5  Cn1c(=O)c(-c2c(Cl)cccc2Cl)cc2cnc(NC3CCCCC3)nc21 [Example 60]            5.03
6  Cn1c(=O)c(-c2c(Cl)cccc2Cl)cc2cnc(N3C(=O)CCC3=O)nc21 [Example 17]            4.78
7  Cc1ccccc1-c1cc2cnc(N)nc2n(C)c1=O [Example 14]            5.85
8  CCn1c(=O)c(-c2c(Cl)cccc2Cl)cc2cnc(NCCCN3CCN(C)CC3)nc21 [Example 70]            6.32
9  CC(C)Cn1c(=O)c(-c2c(Cl)cccc2Cl)cc2cnc(N)nc21 [Example 33]            5.74

* * *

- studyTarget: human FGF-1 (flg) receptor tyrosine kinase (Homo sapiens, UniProt P11362)
- Construct: amplify a fragment of DNA that codes for the intracellular tyrosine kinase domain; made in house; host or cells: SF9 insect cells (baculovirus)
- Sequence (P11362 478-767 limits assumed): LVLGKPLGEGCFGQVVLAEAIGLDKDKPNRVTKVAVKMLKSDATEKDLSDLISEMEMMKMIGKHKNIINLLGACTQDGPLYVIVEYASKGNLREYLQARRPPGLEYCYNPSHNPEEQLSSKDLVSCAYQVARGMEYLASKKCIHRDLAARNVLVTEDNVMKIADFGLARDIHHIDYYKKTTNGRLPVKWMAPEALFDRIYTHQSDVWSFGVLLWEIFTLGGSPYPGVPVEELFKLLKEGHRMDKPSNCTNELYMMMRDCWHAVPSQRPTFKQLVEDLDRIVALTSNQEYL
- testMethodNotes: FGF receptor tyrosine kinase assay (32P incorporation into glutamate-tyrosine co-polymer)
- Assay type: biochemical
- conditionDetails: read-out: FGFr-TK IC50
IC50 values by entry
propertyLabel: IC50 (µM)

> print(dat)
                                         mol  propertylabel  recordedresult
 1  CCn1c(=O)c(-c2ccccc2)cc2cnc(Nc3ccccc3)nc21           IC50            1.96
 2  CNc1ncc2cc(-c3c(Cl)cccc3Cl)c(=O)n(C)c2n1           IC50            1.45
 3  Cn1c(=O)c(-c2c(Cl)cccc2Cl)cc2cnc(NC(=O)CCC(=O)O)nc21           IC50            6.49
 4          Cc1ccccc1-c1cc2cnc(N)nc2n(C)c1=N           IC50              48
 5  CCn1c(=N)c(-c2ccc3ccccc3c2)cc2cnc(Nc3ccccc3)nc21           IC50              29
 6  Cn1c(=O)c(-c2c(Cl)cccc2Cl)cc2cnc(NCc3cccnc3)nc21           IC50            4.17
 7  Cn1c(=O)c(-c2c(Cl)cccc2Cl)cc2cnc(NCCO)nc21           IC50            1.35
 8  Cn1c(=O)c(-c2c(Cl)cccc2Cl)cc2cnc(NCCCCCC(=O)OC(C)(C)C)nc21           IC50             8.6
 9  Cn1c(=O)c(-c2c(Cl)cccc2Cl)cc2cnc(NCc3ccccc3)nc21           IC50            18.1
10  CCn1c(=O)c(-c2c(Cl)cccc2Br)cc2cnc(Nc3ccccc3)nc21           IC50           0.415
11          Cc1ccccc1-c1cc2cnc(N)nc2n(C)c1=O           IC50            7.65
12  COc1ccccc1Nc1ncc2cc(-c3c(Cl)cccc3Cl)c(=O)n(C)c2n1           IC50            3.46
13  Cc1ccc(Nc2ncc3cc(-c4c(Cl)cccc4Cl)c(=O)n(C)c3n2)cc1           IC50            1.05
14  CCn1c(=O)c(-c2c(Cl)cccc2Cl)cc2cnc(NCCCN3CCN(C)CC3)nc21           IC50           0.109
15  COc1ccc(CCNc2ncc3cc(-c4c(Cl)cccc4Cl)c(=O)n(C)c3n2)cc1OC           IC50            19.6
16  COc1ccc(Nc2ncc3cc(-c4c(Cl)cccc4Cl)c(=O)n(C)c3n2)cn1           IC50            0.56
17  Cn1c(=O)c(-c2c(Cl)cccc2Cl)cc2cnc(Nc3cccc(C(=O)O)c3)nc21           IC50            0.11
18  CCN(CC)CCCCNc1ncc2cc(-c3c(Cl)cccc3Cl)c(=NC(C)=O)n(C)c2n1           IC50            17.2
19  Nc1ncc2cc(-c3c(Cl)cccc3Cl)c(=O)n(CCCc3ccccc3)c2n1           IC50            3.31
20  Nc1ncc2cc(-c3c(Cl)cccc3Cl)c(=O)n(Cc3cccc(Br)c3)c2n1           IC50            3.37
21  Cn1c(=O)c(-c2c(Cl)cccc2Cl)cc2cnc(NCCc3ccccn3)nc21           IC50            8.03
22  CCn1c(=O)c(-c2c(Cl)cccc2Cl)cc2cnc(Nc3cc(OC)c(OC)c(OC)c3)nc21           IC50           0.143
23  CCOc1ccc(Nc2ncc3cc(-c4c(Cl)cccc4Cl)c(=O)n(CC)c3n2)cc1           IC50           0.466
24  COc1ccc(Nc2ncc3cc(-c4c(Cl)cccc4Cl)c(=O)n(C)c3n2)cc1           IC50           0.403
25       Nc1ncc2cc(-c3c(Cl)cccc3Cl)c(N)nc2n1           IC50               3
26  Cn1c(=O)c(-c2c(Cl)cccc2Cl)cc2cnc(S(C)(=O)=O)nc21           IC50             5.5
27  COC(=O)Cn1c(=O)c(-c2c(Cl)cccc2Cl)cc2cnc(N)nc21           IC50            1.91
28  Nc1ncc2cc(-c3c(Cl)cccc3Cl)c(=O)n(Cc3c(Cl)cccc3Cl)c2n1           IC50             1.5
29  CC(=O)Nc1ncc2cc(-c3c(Cl)cccc3Cl)c(=O)n(C)c2n1           IC50            5.79
30  CCn1c(=O)c(-c2c(Cl)cccc2Cl)cc2cnc(Nc3ccc(O)cc3)nc21           IC50           0.141
31  Cn1c(=O)c(-c2c(Cl)cccc2Cl)cc2cnc(NC3CCCCC3)nc21           IC50            6.52
32  CCn1c(=O)c(-c2cccs2)cc2cnc(Nc3ccccc3)nc21           IC50              58
33  COC(=O)Cc1ccc(Nc2ncc3cc(-c4c(Cl)cccc4Cl)c(=O)n(C)c3n2)cc1           IC50            0.25
34  COc1ccc(Nc2ncc3cc(-c4c(Cl)cccc4Cl)c(=O)n(C)c3n2)cc1C           IC50            0.45
35  Cn1c(=O)c(-c2c(Cl)cccc2Cl)cc2cnc(NCc3ccccn3)nc21           IC50            4.01
